# testedSystem: T1, C-SBP2 (human, UniProt Q96T21 515-854)
# T1 sequence: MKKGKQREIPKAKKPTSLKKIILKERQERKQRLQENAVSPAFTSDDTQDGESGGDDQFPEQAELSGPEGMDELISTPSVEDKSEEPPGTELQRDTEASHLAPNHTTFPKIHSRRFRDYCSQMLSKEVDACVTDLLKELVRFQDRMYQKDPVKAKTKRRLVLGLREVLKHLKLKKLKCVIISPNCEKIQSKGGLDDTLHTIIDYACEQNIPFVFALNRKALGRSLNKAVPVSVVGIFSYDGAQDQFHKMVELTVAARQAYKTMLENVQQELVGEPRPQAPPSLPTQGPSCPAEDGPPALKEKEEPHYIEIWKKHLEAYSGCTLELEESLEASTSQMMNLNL
# measurementDescription: EMSA
propertyMeasured: pKd
# pKd = -log10(concentration in molar units)

Input line: Name the recorded pKd of the item Se1:Ins (structured_RNA) RNA: GGACCUUUGUACCCCAGAUGAUGGGCCUUCACUGGCCUUGAUGGGUACAAAUGGCAG in your answer.
Output line: 6.52
